B1: Azoarcus group I ribozyme (parent)
chain: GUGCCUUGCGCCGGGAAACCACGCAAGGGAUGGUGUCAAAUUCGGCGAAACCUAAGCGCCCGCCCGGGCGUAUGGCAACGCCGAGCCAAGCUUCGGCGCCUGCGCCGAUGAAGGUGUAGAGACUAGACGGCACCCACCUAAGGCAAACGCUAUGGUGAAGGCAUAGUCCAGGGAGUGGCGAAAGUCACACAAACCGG

Variants of: B1
experiment-notes: reverse-splicing fitness (ratio to wild type); higher = more active; in vitro selection; Mg2+ level not given
Assignment: determine reported reverse-splicing fitness for the given variants.
Form rule: numeric answer, no unit written next to it.

Lookup: Look up and report measured reverse-splicing fitness for this entry: C82U A120U A145U C150U C169G U176G
Found: 0.00157

Lookup: Look up and report measured reverse-splicing fitness for this entry: C82U A120C A145G C150U C169A U176C
Found: 0.0131

Lookup: Look up and report measured reverse-splicing fitness for this entry: C82U A111G A120U C150A C169U U176G
Found: 0.00202

Lookup: Look up and report measured reverse-splicing fitness for this entry: C82U A111C A120U A145C C150G U176G
Found: 0.00239

Lookup: Look up and report measured reverse-splicing fitness for this entry: C82U A111C A145G C150U C169G
Found: 0.00802

Lookup: Look up and report measured reverse-splicing fitness for this entry: C82U A111G A120U A145G
Found: 0.0428

Lookup: Look up and report measured reverse-splicing fitness for this entry: C82U A111G A120C A145C C150A
Found: 0.00803

Lookup: Look up and report measured reverse-splicing fitness for this entry: C82U A111U A145G C169A U176A
Found: 0.0191

Lookup: Look up and report measured reverse-splicing fitness for this entry: C82G A120U A145G C150U C169U
Found: 0.00803

Lookup: Look up and report measured reverse-splicing fitness for this entry: C82A A111C A120G A145C C150U C169U U176G
Found: 0.00482

Lookup: Look up and report measured reverse-splicing fitness for this entry: C82U A111U A120C A145G C150U C169G U176A
Found: 0.0128

Lookup: Look up and report measured reverse-splicing fitness for this entry: C82U A111C A145C U176C
Found: 0.0915

Lookup: Look up and report measured reverse-splicing fitness for this entry: C82A A111U A120G A145U C150G C169A
Found: 0.00884

Lookup: Look up and report measured reverse-splicing fitness for this entry: C82G A111G A145G C169A U176A
Found: 0.0158

Lookup: Look up and report measured reverse-splicing fitness for this entry: A111U A120U A145C C169G U176G
Found: 0.00199

Lookup: Look up and report measured reverse-splicing fitness for this entry: C82U A111G A120G A145U C150A C169A
Found: 0.00822

Lookup: Look up and report measured reverse-splicing fitness for this entry: C82U A120C A145C U176C
Found: 0.0651

Lookup: Look up and report measured reverse-splicing fitness for this entry: C82G A111C A120U A145G C150U C169A U176G
Found: 0.00301

Lookup: Look up and report measured reverse-splicing fitness for this entry: A111C A120C A145C C150A C169A U176C
Found: 0.00638

Lookup: Look up and report measured reverse-splicing fitness for this entry: A111G A145U C150A C169A U176C
Found: 0.00843

Lookup: Look up and report measured reverse-splicing fitness for this entry: C82U A111C A120U C169U U176A
Found: 0.0057

Lookup: Look up and report measured reverse-splicing fitness for this entry: A111U A120C A145C C150G C169U U176C
Found: 0.0144

Lookup: Look up and report measured reverse-splicing fitness for this entry: C82A A111G A120C A145G C169A U176A
Found: 0.0226

Lookup: Look up and report measured reverse-splicing fitness for this entry: C82G A111U A120G A145C C169G
Found: 0.0125

Lookup: Look up and report measured reverse-splicing fitness for this entry: C82A A111U A145U C150U C169U U176C
Found: 0.0143

Lookup: Look up and report measured reverse-splicing fitness for this entry: C82U A111U A120G A145U C150G C169U
Found: 0.00779

Lookup: Look up and report measured reverse-splicing fitness for this entry: C82A A120C A145C C150G C169U
Found: 0.00982

Lookup: Look up and report measured reverse-splicing fitness for this entry: A111C A120G A145U C150U C169U
Found: 0.106

Lookup: Look up and report measured reverse-splicing fitness for this entry: C82A A111U A145C C150A C169A U176A
Found: 0.0149

Lookup: Look up and report measured reverse-splicing fitness for this entry: C82G A111G A120C A145G C150G C169G
Found: 0.00764

Lookup: Look up and report measured reverse-splicing fitness for this entry: C82U A111G A120U A145C C150G C169U
Found: 0.00264

Lookup: Look up and report measured reverse-splicing fitness for this entry: C82U A111U A145G C169G U176C
Found: 0.027

Lookup: Look up and report measured reverse-splicing fitness for this entry: A111U A145U C169U U176C
Found: 0.0326

Lookup: Look up and report measured reverse-splicing fitness for this entry: C82U A120C C150A C169A U176C
Found: 0.0132

Lookup: Look up and report measured reverse-splicing fitness for this entry: C82A A111G A145U C150U U176G
Found: 0.0305

Lookup: Look up and report measured reverse-splicing fitness for this entry: C82U A111U A120U A145G C169A U176A
Found: 0.00289

Lookup: Look up and report measured reverse-splicing fitness for this entry: C82U A111G A120U C150A U176A
Found: 0.00587

Lookup: Look up and report measured reverse-splicing fitness for this entry: C82A A111G A120G C150G C169U U176C
Found: 0.0135

Lookup: Look up and report measured reverse-splicing fitness for this entry: A111U A120C A145C C150A U176G
Found: 0.00877

Lookup: Look up and report measured reverse-splicing fitness for this entry: A111G A120G A145U C169U
Found: 0.232

Lookup: Look up and report measured reverse-splicing fitness for this entry: C82A A111G A145G C150G C169U U176A
Found: 0.0112

Lookup: Look up and report measured reverse-splicing fitness for this entry: A111C A120C A145C C150U C169A U176G
Found: 0.00703

Lookup: Look up and report measured reverse-splicing fitness for this entry: C82A A111G A145C C150G C169G U176A
Found: 0.0093

Lookup: Look up and report measured reverse-splicing fitness for this entry: C82U A120C A145G C169U
Found: 0.0217

Lookup: Look up and report measured reverse-splicing fitness for this entry: C82A A111U A145C C150G C169A U176G
Found: 0.00755

Lookup: Look up and report measured reverse-splicing fitness for this entry: A120C A145G C150A C169U
Found: 0.134

Lookup: Look up and report measured reverse-splicing fitness for this entry: A111G A120G A145G C150A U176G
Found: 0.00788

Lookup: Look up and report measured reverse-splicing fitness for this entry: A111U A145G C150A U176C
Found: 0.299

Lookup: Look up and report measured reverse-splicing fitness for this entry: C82A A111C A120C C150U C169G U176C
Found: 0.016

Lookup: Look up and report measured reverse-splicing fitness for this entry: C82U A120U C150A C169A U176G
Found: 0.00199

Lookup: Look up and report measured reverse-splicing fitness for this entry: C82A A111U A120U U176A
Found: 0.00842

Lookup: Look up and report measured reverse-splicing fitness for this entry: A120G A145G C150A C169U U176G
Found: 0.00665

Lookup: Look up and report measured reverse-splicing fitness for this entry: C82U A111C A120U A145G C150G U176A
Found: 0.00648

Lookup: Look up and report measured reverse-splicing fitness for this entry: C82A A111U A120C A145C C150A C169A
Found: 0.01

Lookup: Look up and report measured reverse-splicing fitness for this entry: C82U A111G A120C C150G C169U U176A
Found: 0.00617

Lookup: Look up and report measured reverse-splicing fitness for this entry: C82A A111C A120U A145G C150A
Found: 0.00897

Lookup: Look up and report measured reverse-splicing fitness for this entry: C82U A111C C150U U176A
Found: 0.0385

Lookup: Look up and report measured reverse-splicing fitness for this entry: C82U A111G A145U C150A C169A U176A
Found: 0.0129

Lookup: Look up and report measured reverse-splicing fitness for this entry: C82G A111G A145G C150G C169A U176G
Found: 0.0094

Lookup: Look up and report measured reverse-splicing fitness for this entry: C82U A111C A120C A145U C150U C169G U176C
Found: 0.0142

Lookup: Look up and report measured reverse-splicing fitness for this entry: C82A A111U C150U U176C
Found: 0.0751

Lookup: Look up and report measured reverse-splicing fitness for this entry: C82G A120U A145G C150A C169G U176A
Found: 0.00555

Lookup: Look up and report measured reverse-splicing fitness for this entry: C82G A111G A120C A145U C150G C169A U176A
Found: 0.0119

Lookup: Look up and report measured reverse-splicing fitness for this entry: C82G A111G A120G C150A C169A
Found: 0.0123

Lookup: Look up and report measured reverse-splicing fitness for this entry: C82A A111U A145C C150U C169G U176C
Found: 0.0141

Lookup: Look up and report measured reverse-splicing fitness for this entry: C82A A111C A120U A145G C169U U176G
Found: 0.00234

Lookup: Look up and report measured reverse-splicing fitness for this entry: C82U A111U A120C C150A C169G
Found: 0.0083

Lookup: Look up and report measured reverse-splicing fitness for this entry: C82A A111U A145U C150G C169A
Found: 0.00877

Lookup: Look up and report measured reverse-splicing fitness for this entry: A145U C150A U176G
Found: 0.177

Lookup: Look up and report measured reverse-splicing fitness for this entry: C82G A111G C150U C169U U176G
Found: 0.00785

Lookup: Look up and report measured reverse-splicing fitness for this entry: A111C A120G A145G C150G C169A U176A
Found: 0.0128

Lookup: Look up and report measured reverse-splicing fitness for this entry: C82A A120C C150U C169A U176A
Found: 0.0201

Lookup: Look up and report measured reverse-splicing fitness for this entry: C82G A120U A145G C150G U176G
Found: 0.0041

Lookup: Look up and report measured reverse-splicing fitness for this entry: C82U A111C A120G A145G C150G C169U
Found: 0.00832

Lookup: Look up and report measured reverse-splicing fitness for this entry: A111U A120G C150U C169A U176G
Found: 0.00517

Lookup: Look up and report measured reverse-splicing fitness for this entry: C82U A120G C169G U176G
Found: 0.00332

Lookup: Look up and report measured reverse-splicing fitness for this entry: C82U A111U A145C C150U C169A U176A
Found: 0.0108

Lookup: Look up and report measured reverse-splicing fitness for this entry: C82G A111C A120G A145G C150G U176C
Found: 0.0113

Lookup: Look up and report measured reverse-splicing fitness for this entry: A111G A120U A145G C150U U176A
Found: 0.237

Lookup: Look up and report measured reverse-splicing fitness for this entry: C82A A111C A120G A145C C150U C169A U176A
Found: 0.0112

Lookup: Look up and report measured reverse-splicing fitness for this entry: A111G A120G A145U C150A C169U U176C
Found: 0.0198

Lookup: Look up and report measured reverse-splicing fitness for this entry: C82U A111U A120G C150U C169U
Found: 0.00882

Lookup: Look up and report measured reverse-splicing fitness for this entry: A111G A120C A145U C150G C169G U176C
Found: 0.00451

Lookup: Look up and report measured reverse-splicing fitness for this entry: A111G A120C C150A C169U U176G
Found: 0.00616

Lookup: Look up and report measured reverse-splicing fitness for this entry: C82A A120U A145C C150G C169G U176A
Found: 0.00256

Lookup: Look up and report measured reverse-splicing fitness for this entry: A111G A120G A145C U176G
Found: 0.00892

Lookup: Look up and report measured reverse-splicing fitness for this entry: C82A A120G A145U C150G U176C
Found: 0.00721

Lookup: Look up and report measured reverse-splicing fitness for this entry: A111G A120U C150U C169G
Found: 0.0472

Lookup: Look up and report measured reverse-splicing fitness for this entry: C82A A111C A120U A145C
Found: 0.0196

Lookup: Look up and report measured reverse-splicing fitness for this entry: C82G C150A
Found: 0.0416

Lookup: Look up and report measured reverse-splicing fitness for this entry: C82A A111G A145G C150G C169A U176C
Found: 0.0154
